Quick reference for EC50 (nM), TcdA neutralization, T84 cells among some binders
# targetOrTestSystem: full-length TcdA (TcdA1-2710) (Clostridioides difficile strain VPI10463, UniProt P16154 1-2710)
# Sequence (P16154 whole entry): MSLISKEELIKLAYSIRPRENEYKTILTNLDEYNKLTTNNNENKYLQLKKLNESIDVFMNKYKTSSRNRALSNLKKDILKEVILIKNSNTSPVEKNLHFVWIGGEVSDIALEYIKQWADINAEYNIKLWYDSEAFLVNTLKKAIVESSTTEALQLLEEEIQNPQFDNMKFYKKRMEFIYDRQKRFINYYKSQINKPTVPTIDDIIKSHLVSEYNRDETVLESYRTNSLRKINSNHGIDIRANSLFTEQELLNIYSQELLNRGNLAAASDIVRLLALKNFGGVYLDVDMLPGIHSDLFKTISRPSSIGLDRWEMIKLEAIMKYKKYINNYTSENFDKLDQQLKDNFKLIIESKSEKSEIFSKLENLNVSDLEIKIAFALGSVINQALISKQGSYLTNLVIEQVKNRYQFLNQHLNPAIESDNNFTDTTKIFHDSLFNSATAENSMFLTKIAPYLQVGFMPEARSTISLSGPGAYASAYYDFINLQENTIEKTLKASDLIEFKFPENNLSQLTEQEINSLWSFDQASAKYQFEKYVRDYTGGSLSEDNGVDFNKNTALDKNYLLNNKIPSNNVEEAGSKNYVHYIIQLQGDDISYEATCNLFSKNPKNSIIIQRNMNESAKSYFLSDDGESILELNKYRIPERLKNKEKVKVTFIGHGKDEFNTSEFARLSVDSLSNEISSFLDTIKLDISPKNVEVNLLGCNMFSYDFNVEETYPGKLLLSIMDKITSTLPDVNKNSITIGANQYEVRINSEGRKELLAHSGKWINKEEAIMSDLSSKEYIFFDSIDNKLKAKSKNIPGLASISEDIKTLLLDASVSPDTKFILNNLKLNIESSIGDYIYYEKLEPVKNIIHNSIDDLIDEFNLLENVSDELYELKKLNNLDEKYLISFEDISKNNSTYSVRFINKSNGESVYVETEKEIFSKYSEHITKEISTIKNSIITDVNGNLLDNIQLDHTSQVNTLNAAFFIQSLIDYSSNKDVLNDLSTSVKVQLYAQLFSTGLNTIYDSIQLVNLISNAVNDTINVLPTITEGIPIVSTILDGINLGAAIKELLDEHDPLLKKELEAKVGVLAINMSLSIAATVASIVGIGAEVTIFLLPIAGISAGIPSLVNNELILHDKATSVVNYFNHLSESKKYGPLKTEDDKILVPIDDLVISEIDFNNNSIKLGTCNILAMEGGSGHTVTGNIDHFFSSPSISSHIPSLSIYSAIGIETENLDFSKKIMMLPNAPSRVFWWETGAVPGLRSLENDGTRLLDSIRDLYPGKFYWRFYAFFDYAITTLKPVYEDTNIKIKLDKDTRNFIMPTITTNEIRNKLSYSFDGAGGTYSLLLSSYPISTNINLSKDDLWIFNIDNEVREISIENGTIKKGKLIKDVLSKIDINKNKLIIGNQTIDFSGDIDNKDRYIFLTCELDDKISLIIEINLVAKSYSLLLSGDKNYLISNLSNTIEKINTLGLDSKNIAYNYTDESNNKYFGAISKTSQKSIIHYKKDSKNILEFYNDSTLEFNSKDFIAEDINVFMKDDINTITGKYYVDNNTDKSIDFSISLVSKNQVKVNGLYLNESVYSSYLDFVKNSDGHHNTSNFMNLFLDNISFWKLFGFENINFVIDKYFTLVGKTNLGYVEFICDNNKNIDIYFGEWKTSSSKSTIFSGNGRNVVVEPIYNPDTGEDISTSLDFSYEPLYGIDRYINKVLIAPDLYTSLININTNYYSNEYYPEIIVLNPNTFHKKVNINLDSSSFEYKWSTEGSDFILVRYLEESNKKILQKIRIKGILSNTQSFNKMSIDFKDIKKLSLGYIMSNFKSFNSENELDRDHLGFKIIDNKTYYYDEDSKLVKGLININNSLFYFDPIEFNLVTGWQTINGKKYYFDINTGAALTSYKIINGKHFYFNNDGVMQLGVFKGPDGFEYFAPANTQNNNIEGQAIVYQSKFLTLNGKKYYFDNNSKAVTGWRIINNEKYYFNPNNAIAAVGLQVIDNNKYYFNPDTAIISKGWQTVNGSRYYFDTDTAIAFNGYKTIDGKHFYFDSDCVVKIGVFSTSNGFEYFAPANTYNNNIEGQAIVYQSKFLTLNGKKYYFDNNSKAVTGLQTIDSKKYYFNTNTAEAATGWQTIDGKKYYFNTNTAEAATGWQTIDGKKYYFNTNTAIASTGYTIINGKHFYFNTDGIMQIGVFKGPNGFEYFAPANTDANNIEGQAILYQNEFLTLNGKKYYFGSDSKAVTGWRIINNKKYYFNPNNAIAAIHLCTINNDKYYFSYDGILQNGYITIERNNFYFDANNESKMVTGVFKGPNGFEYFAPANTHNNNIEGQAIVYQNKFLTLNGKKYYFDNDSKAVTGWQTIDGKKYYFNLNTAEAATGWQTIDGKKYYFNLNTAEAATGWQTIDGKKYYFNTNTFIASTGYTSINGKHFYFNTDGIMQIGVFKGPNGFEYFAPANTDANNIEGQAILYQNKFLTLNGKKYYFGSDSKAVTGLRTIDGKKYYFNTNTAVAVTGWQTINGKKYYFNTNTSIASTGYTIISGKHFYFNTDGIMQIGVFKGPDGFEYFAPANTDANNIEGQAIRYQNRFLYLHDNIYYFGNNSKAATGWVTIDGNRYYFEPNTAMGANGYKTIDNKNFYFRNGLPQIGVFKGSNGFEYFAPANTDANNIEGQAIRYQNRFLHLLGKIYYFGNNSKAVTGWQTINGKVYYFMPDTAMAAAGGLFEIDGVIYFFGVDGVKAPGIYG
# experimentDescription: cell-based or functional assay
Reply with just the number (in nM).

binder: A2F10 (VHH) VHH: QVQLQESGGGLVQPGGSLRLSCAASGRSFSSGAMGWFRQAPGKEREFVGVGWSGGLIDYAASVRGRFTITRDKAKNTVYLRMDSLRPEDTAVYYCAINSANSCAGYDCHDKPQVYDYWGQGTQVTVSS
unitText: nM
quantitativeResult: 455
--
binder: A2A6 (VHH) VHH: QVQLQESGGGLVQAGGSLRLSCADSGRTFSRYEMGWSRQAPGKEREFVAVINRLGRSTYYADSVKGRFTISRDNAKNTVYLQMNSLKPEDTAVYYCAAGVRLNLPQIPDVIDFWGQGTQVTVSS
unitText: nM
quantitativeResult: 91
--
binder: A2C2 (VHH) VHH: QVQLQESGGGLVQTGGSLRLSCTASGRTFSRYAMGWFRQASGKEREFVAAISYSGGTTYYSDSVKGRFTISRDNAKSTVSLQMNSLKPEDTAVYYCAAGLFRGDLTRFTLDEYDYRGQGTQVTVSS
unitText: nM
quantitativeResult: 2.4

Look up EC50 (nM), TcdA neutralization, T84 cells for this binder: A2F12 (VHH) VHH: QVQLQESGGGLVQAGGSLRLSCAASGRTFSRYAMGWFRQAPGKEREFVAAISWSGDTTYDADSVKGRFTVSRDNAKNTVYLQMNSLKPEDTAVYYCAAGLFRGDLTKFELDEYDYRGQGTQVTVSS
1.1
